- Tested on: Caco-2
- ASSAY_NAME: Cytotoxicity against human Caco-2 cells after 48 hrs by MTT assay
- Type: cell-based
- PARTICULARS: Homo sapiens, Caco-2, 48 h

ENTRY_SMILES: C=C1[C@@H](OC(=O)[C@H](O)[C@@H](NC(=O)OC(C)(C)C)c2ccccc2)C[C@H](OC(C)=O)[C@]2(C)[C@@H]1C[C@]1(C(C)(C)O)CC(=O)C(C)=C1[C@@H](OC(=O)c1ccccc1)[C@@H]2OC(C)=O
IC50 (µg/mL): 100

ENTRY_SMILES: C=C1[C@@H](OC(=O)[C@H](O)[C@@H](NC(=O)OC(C)(C)C)c2ccccc2)C[C@H](OC(C)=O)[C@]2(C)[C@@H]1C[C@]1(C(C)(C)O)C[C@H](O)C(C)=C1[C@@H](OC(=O)c1ccccc1)[C@@H]2OC(C)=O
IC50 (µg/mL): 100

The reported numbers originate from ChEMBL document CHEMBL1140954.
